Test method notes: viability loss with induced miR-34 in A549 – imaging, A549 dox-inducible miR-34, nuclei and caspase counts, primary screen (AID 1347080); also: test concentration not given here
Measurement context: A549 miR-34 inducible, Hoechst nuclei count, 48 h; measured here: relative caspase fold change +Dox/-Dox
Measured attribute: fold change

Worked cases, fold change given:
- Compound: "Cc1nn(C)cc1-c1ccnc(NC2CCOC(C)(C)C2)n1 (stereo unspecified)"
  fold change: 2.06
- Compound: "CCCn1cc(-c2ccnc(NC3CCN(Cc4cccnc4)CC3)n2)c(C)n1"
  fold change: 2
- Compound: "Cc1nc(N=Nc2ccc(S(=O)(=O)O)cc2S(=O)(=O)O)c(COP(=O)(O)O)c(C=O)c1O"
  fold change: 1.49

For the compound C=CCC1C=C(C)CC(C)CC(OC)C2O[C@@](O)(C(=O)C(=O)N3CCCC[C@H]3C(=O)OC(C(C)=CC3CCC(O)C(OC)C3)C(C)C(O)CC1=O)C(C)CC2OC (stereo partly specified) , give its reported fold change.
0.834

For the compound `C[C@H]([C@H](C)N1CC(=O)NC(=O)C1)N1CC(=O)NC(=O)C1` , give its reported fold change.
0.644

For the compound `CC1=C(/C=C/C(C)=C\C=C\C(C)=C\C(=O)O)C(C)(C)CCC1` , give its reported fold change.
1.46

For the compound CCOC(=O)N1c2ccc(C(F)(F)F)cc2C(N(Cc2cc(C(F)(F)F)cc(C(F)(F)F)c2)C(=O)OC)CC1CC (stereo unspecified) , give its reported fold change.
0.794

For the compound `CCCCCCCCCCC/C=C\C/C=C\CCCC(=O)O` , give its reported fold change.
0.921

For the compound `CCCCCCCCCCCCCCCC(=O)NCC(=O)O` , give its reported fold change.
1.05

For the compound `Cc1c(C(=O)Nc2ccc(N3CCC(N4CCOCC4)CC3)c(C#N)c2)cnn1-c1ccc(Cl)cc1` , give its reported fold change.
0.399

For the compound CC(C)NCC(C(=O)N1CCN(c2ncnc3c2C(C)CC3O)CC1)c1ccc(Cl)cc1 (stereo unspecified) , give its reported fold change.
0.724

For the compound `COc1c(C)c2c(c(O)c1CC=C(C)CCC(=O)O)C(=O)OC2` , give its reported fold change.
0.86

For the compound OCc1ccccc1OC1OC(CO)C(O)C(O)C1O (stereo unspecified) , give its reported fold change.
0.784

For the compound CCCCCCCCCC(=O)NC(CN1CCOCC1)[C@H](O)c1ccccc1 (stereo partly specified) , give its reported fold change.
1.18

For the compound CCOC(=O)C1=C(N)Oc2ccc(Br)cc2[C@H]1C(C#N)C(=O)OCC (stereo partly specified) , give its reported fold change.
0.887

For the compound COC(C(=O)N1Cc2[nH]nc(NC(=O)c3ccc(N4CCN(C)CC4)cc3)c2C1)c1ccccc1 (stereo unspecified) , give its reported fold change.
0.994
